Below, each entry is listed alongside its reported pEC50.
- Test system: CEM cells HIV-1 protection, formazan growth assay
- assay-remarks: NCI AIDS Antiviral Assay
pEC50: −log10 of the molar value.

Study these solved cases before continuing.
compound	pEC50
COC1O[C@@H]2CCN3C(=O)[C@@H](OC(=O)c4ccc([N+](=O)[O-])cc4)[C@H]1C23 (stereo partly specified)	< 3.70
Cc1cc(-c2ccc(C(=O)C(Cl)(Cl)Cl)[nH]2)on1	< 3.70
Cc1nc2cncnc2n(CCN2CCOCC2)c1=O	< 3.70
O=C(Cc1ccccc1)NN1C(=O)/C(=C\c2cccc([N+](=O)[O-])c2)SC1=Nc1ccccc1	< 4.25
Cn1cc(S(=O)(=O)NC(=O)Nc2ccc(Cl)cc2)c(=O)c2ccc(Cl)cc21	< 3.70

Query pEC50 for Cc1cccc(NC(=O)CSc2nnc(-c3ccc(N=Cc4ccc(Cl)cc4)cc3)o2)c1
< 4.67

Query pEC50 for CC(=O)c1sc2c(c1O)c(=O)n(-c1ccccc1)c(=S)n2-c1ccccc1
< 3.62

Query pEC50 for O=c1c2ccccc2[nH]c(=S)n1-c1cccc(C(F)(F)F)c1
< 3.70

Query pEC50 for O=c1[nH]c2cn(-c3ccccc3)nc2c(=O)n1O
< 3.70

Query pEC50 for Cc1nc2c(=O)n(C)c(=O)n(C)c2o1
< 3.70

Query pEC50 for Cc1ccc(S(=O)(=O)NC(=O)NN2CCCCCC2)cc1
< 3.70

Query pEC50 for COc1c(O)c2c(=O)cc(OC)c3c4c(OC)cc(=O)c5c(O)c(OC)c6c(c(c1C(C(C)O)C6C(C)O)c23)c54 (stereo unspecified)
< 5.70

###

- System: CEM cells HIV-1 protection, formazan growth assay
- assay-remarks: NCI AIDS Antiviral Assay;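 active means compounds giving half or more protection of infected cells from virus-caused growth loss, again on retest; inactive means the rest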
Give one outcome, nothing more. List: active, inactive

Example cases with answers are listed next.
compound	group-label
CCOC(=O)c1c(-c2ccccc2)csc1N	active
CC[C@]12C=CCN3CCC4(c5cc([C@]6(C(=O)OC)C[C@H]7CN(CCc8c6[nH]c6ccccc86)C[C@@H]6CCCC[C@H]76)c(OC)cc5N(C)C4[C@@](O)(C(=O)OC)C1OC(C)=O)[C@@H]32 (stereo partly drawn)	inactive

Next item in the queue.
Could you kindly confirm the outcome this assay logged for COc1cc(O)c2c(=O)oc3cc(O)cc(C)c3c2c1 ?
inactive

###

Below, each entry is listed alongside its reported pIC50.
- Test system: CEM cells HIV-1 protection, formazan growth assay
- assay-remarks: NCI AIDS Antiviral Assay
- stated-conditions: measured here: growth of uninfected CEM cells
pIC50: −log10 of the molar value.

Study these solved cases before continuing.
> print(dat)
                                   molecule  measured.parameter  value.observed
1  CN(C)CC(=O)N1CC(COS(C)(=O)=O)c2ccc(O)cc21 (centres undefined)               pIC50            5.46
2  COC12OCC(OC1OCc1ccccc1)C1OC(C)(C)OC12 (centres undefined)               pIC50            3.98
3     COC(=O)CCC(=O)CC(=O)C(=O)Nc1ccc(F)cc1               pIC50          < 4.34
4  Cc1cc(NS(=O)(=O)c2ccc(NC(NC(=O)C(C(F)(F)F)C(F)(F)F)(C(F)(F)F)C(F)(F)F)cc2)no1               pIC50          < 3.70
5  O=[As](O)(O)c1cc(N=Nc2ccc(-c3ccc(N=Nc4cc([As](=O)(O)O)c(O)cc4O)cc3)cc2)c(O)cc1O               pIC50            5.11

Query pIC50 for O=C(NCc1ccc2ccc3cccnc3c2n1)c1ccc[n+](Cc2ccccc2)c1
4.61

Query pIC50 for CC(=O)Nc1ccc(C(=O)NN2C(=O)C(Cl)C2/C=C/c2ccccc2)cc1 (centres undefined)
3.78

Query pIC50 for N#CC12COC3(CCCCC3C1(C#N)C#N)OC2=N (centres undefined)
5.40

Query pIC50 for CC1(O)OC(=O)c2ccc3ccccc3c21 (centres undefined)
< 3.40

Query pIC50 for CCn1c(=S)[nH]c2sc3c(c2c1=O)CCCCC3
4.66

Query pIC50 for [Ni].c1c[nH]cn1.c1c[nH]cn1.c1c[nH]cn1.c1c[nH]cn1.c1c[nH]cn1.c1c[nH]cn1
< 4.18

Query pIC50 for O=C1NCCCCC1CC/C=C/c1ccccc1 (centres undefined)
4.02

Query pIC50 for CCN(CC)C(C)(O)CN (centres undefined)
< 3.70

Query pIC50 for CSc1ncc2c(n1)sc1c(=O)n(-c3ccccc3)cnc12
< 3.70

Query pIC50 for O=C(COc1ccc(Cl)cc1)N1CCN(C(=O)COc2ccc(Cl)cc2)c2ccccc21
< 4.96

Query pIC50 for O=C1C(=O)c2ccccc2C(O)=C1C1CCCCC1
4.39

Query pIC50 for CC(C)(C)[Si](C)(C)OCC1OC(n2ccc(=O)[nH]c2=O)C(O[Si](C)(C)C(C)(C)C)[C@@]12O[C@H]2C(N)=O (some centres undefined)
5.11

Query pIC50 for CCC1(N=[N+]=[N-])C(=O)Nc2cc(C)ccc2C1=O (centres undefined)
< 4.00

###

- Test system: CEM cells HIV-1 protection, formazan growth assay
- assay-remarks: NCI AIDS Antiviral Assay
Activity calls are given as the source filed them.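 How the source made its calls: active means compounds giving half or more protection of infected cells from virus-caused growth loss, again on retest; inactive means the rest.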
measured-parameter: outcome

> print(dat)
                                   compound                             tested.system  measured.parameter  value.observed
1  N#CCC(=O)N/N=C1/C(=O)N(c2cc(Cl)ccc2Cl)C(=O)C(=O)C1c1nc2ccccc2s1 (stereo not drawn)  CEM cells HIV-1 protection, formazan growth assay             outcome        inactive
2  CC1CCC(C(C)C)C(O[C@@H]2OC(=O)C[C@@H]2Sc2ccccc2)C1 (stereo partly drawn)  CEM cells HIV-1 protection, formazan growth assay             outcome        inactive
3  COc1nc(N=P(c2ccccc2)(c2ccccc2)c2ccccc2)cc(=O)[nH]1  CEM cells HIV-1 protection, formazan growth assay             outcome        inactive

###

- Test system: CEM cells HIV-1 protection, formazan growth assay
- assay-remarks: NCI AIDS Antiviral Assay
- stated-conditions: measured here: growth of uninfected CEM cells
measured-parameter: IC50

Study these solved cases before continuing.
compound	IC50
CC12CC(=O)Nc3ccccc3N1C(c1ccccc1)=NO2 (centres undefined)	> 200 µM
COc1cc(/C=C/C(=O)OC[C@]23O[C@H]2[C@@H](OC2OC(C)C(O)C(O)C2O)C2C=CO[C@@H](OC4OC(CO)C(O)C(O)C4O)C23)ccc1O (some centres undefined)	> 200 µM
COc1cc(OC)c2nc(C)c3c(c2c1)SCC3	> 200 µM
O=C1NC(Cc2ccc(O)c(O)c2)C(=O)N2CCCC12 (centres undefined)	> 200 µM
C#CCN1C(=O)c2ccccc2S1(=O)=O	> 200 µM

Please look at CN(C)c1ccc2c(c1)-c1cc(N(C)C)ccc1C2=CC=C1C(=O)c2ccccc2C1=O and tell me its recorded IC50 on CEM cells HIV-1 protection, formazan growth assay.
> 17 µM

Please look at Nc1ncn2c(n1)nc1ccccc12 and tell me its recorded IC50 on CEM cells HIV-1 protection, formazan growth assay.
> 200 µM

Please look at CCCC(CCN)(CCN)[N+](=O)[O-] and tell me its recorded IC50 on CEM cells HIV-1 protection, formazan growth assay.
> 200 µM

Please look at Nc1ccc2oc3cccc(N)c3c(=O)c2c1 and tell me its recorded IC50 on CEM cells HIV-1 protection, formazan growth assay.
> 22.9 µM

###

Below, each entry is listed alongside its reported log10 IC50.
- Tested on: CEM cells HIV-1 protection, formazan growth assay
- assay-remarks: NCI AIDS Antiviral Assay
- stated-conditions: measured here: growth of uninfected CEM cells
Hey, these are logged values: log10 of IC50, µM being the unit before logging.

Study these solved cases before continuing.
> print(dat)
                                   molecule  measured.parameter  value.observed
1  CCN1CC(C)Cn2c(=S)[nH]c3cc(Br)cc1c32 (stereo unspecified)          log10 IC50            2.14
2           O=C1OCCOCCSCCOCCOC(=O)c2cccc1n2          log10 IC50            1.57

Please look at C#CCN1C(=O)CN2C(Cl)(Cl)C2(c2ccccc2)c2cc(Cl)ccc21 (stereo unspecified) and tell me its recorded log10 IC50 on CEM cells HIV-1 protection, formazan growth assay.
1.36

Please look at O=C(C(=C(I)I)c1ccccc1)c1ccccc1 and tell me its recorded log10 IC50 on CEM cells HIV-1 protection, formazan growth assay.
1.29

Please look at CC(Cn1c2c(c3cc(O)ccc31)CCc1ccc(O)cc1-2)N(C)C (stereo unspecified) and tell me its recorded log10 IC50 on CEM cells HIV-1 protection, formazan growth assay.
1.08
